Below is a list of entries, each paired with its recorded abundance fitness value.
B1: Pre-mRNA-processing factor 40 homolog B, residues 274 to 332; numbered along this chain, Q6NWY9 (parent)
chain: SNREKAKQAFKELLRDKAVPSNASWEQAMKMVVTDPRYSALPKLSEKKQAFNAYKAQRE

- Variants of: B1
- PROTOCOL TEXT: abundance fitness (aPCA) (normalised: wild type 0, dead -1); higher = more abundant; growth selection in yeast, the domain comes from the species named
- CONDITIONS: Homo sapiens
Note: the reply should be a number with no unit written.

// known answers, use as guide
VARIANT CODE | abundance fitness
L44W | -0.561
M31E | -0.109
A23F | -0.348

Ask: Would you kindly share the measured abundance fitness for `A23N` ?
Reply: -0.335

Ask: Would you kindly share the measured abundance fitness for `L41Q` ?
Reply: -0.295

Ask: Would you kindly share the measured abundance fitness for `L14R` ?
Reply: -0.71

Ask: Would you kindly share the measured abundance fitness for `A53Y` ?
Reply: -0.524

Ask: Would you kindly share the measured abundance fitness for `K7P` ?
Reply: -0.587

Ask: Would you kindly share the measured abundance fitness for `V32F` ?
Reply: -0.619

Where do these numbers come from? They come from the Human Domainome abundance scans (Beltran et al. 2025).
